Taken from patent US10800782B2.

# pIC50 per entry
biological target: MAT2A (Homo sapiens, UniProt P31153); construct: His6; test: MAT2A biochemical assay (colorimetric inorganic phosphate detection, PiColorLock); conditions: recombinant His6-tagged MAT2A 1 μg/ml; 60 minutes preincubation at 25° C.; L-Met 80 μM, ATP 100 μM; 60 minutes reaction; read at 623 nm; read-out: MAT2A Inhibition Score
Sequence (P31153 whole entry): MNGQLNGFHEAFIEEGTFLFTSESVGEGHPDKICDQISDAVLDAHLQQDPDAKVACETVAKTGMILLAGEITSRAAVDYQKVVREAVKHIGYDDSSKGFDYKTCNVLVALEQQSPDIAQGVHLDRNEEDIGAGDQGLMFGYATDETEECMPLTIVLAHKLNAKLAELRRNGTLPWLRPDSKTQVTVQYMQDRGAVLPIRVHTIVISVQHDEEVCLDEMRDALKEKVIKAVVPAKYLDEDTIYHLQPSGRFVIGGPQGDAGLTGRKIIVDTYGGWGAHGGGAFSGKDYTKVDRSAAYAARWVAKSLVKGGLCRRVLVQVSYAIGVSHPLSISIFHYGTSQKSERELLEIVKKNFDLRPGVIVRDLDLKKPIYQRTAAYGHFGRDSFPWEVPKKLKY
pIC50: −log10 of the molar value.

Data request: Quickly give me recorded pIC50 for "Cc1[nH]c2c(-c3ccccc3)c(-c3ccccc3)nn2c(=O)c1-c1ccc2nc(CN)sc2c1"
Data returned: > 7.00

Data request: State, in one line, measured pIC50 of "Cc1[nH]c2c(N3CCCCC3)c(-c3ccccc3)nn2c(=O)c1-c1ccc(C(N)=O)cc1"
Data returned: 6.00 to 7.00

Data request: Look up pIC50 of "COc1ccc(-c2c(Nc3cnccn3)[nH]c3c(C4=CCCCC4)c(-c4ccccc4)nn3c2=O)cc1" and report it.
Data returned: > 7.00

Data request: Give a short answer stating reported pIC50 for "COc1ccc(-c2c(Nc3cn[nH]n3)[nH]c3c(-c4ccccc4)c(-c4ccccc4)nn3c2=O)cc1" .
Data returned: > 7.00

***
Data request: Complete the entry with pIC50 for "Cc1c(-c2ccc3ncccc3c2)c(=O)n2nc(-c3ccccc3)c(-c3ccccc3)c2n1C"
Data returned: 6.00 to 7.00

Data request: Output pIC50 of "O=C1CN(Cc2[nH]c3c(-c4ccccc4)c(-c4ccccc4)nn3c(=O)c2-c2ccc3ncccc3c2)C(=O)N1"
Data returned: 6.00 to 7.00

Data request: Let me know recorded pIC50 for "Cc1[nH]c2c(N3CCCCC3)c(-c3ccccc3)nn2c(=O)c1N1CCC(O)CC1" , thanks.
Data returned: 6.00 to 7.00
